target: UniProt:P55201
Sequence (P55201 whole entry): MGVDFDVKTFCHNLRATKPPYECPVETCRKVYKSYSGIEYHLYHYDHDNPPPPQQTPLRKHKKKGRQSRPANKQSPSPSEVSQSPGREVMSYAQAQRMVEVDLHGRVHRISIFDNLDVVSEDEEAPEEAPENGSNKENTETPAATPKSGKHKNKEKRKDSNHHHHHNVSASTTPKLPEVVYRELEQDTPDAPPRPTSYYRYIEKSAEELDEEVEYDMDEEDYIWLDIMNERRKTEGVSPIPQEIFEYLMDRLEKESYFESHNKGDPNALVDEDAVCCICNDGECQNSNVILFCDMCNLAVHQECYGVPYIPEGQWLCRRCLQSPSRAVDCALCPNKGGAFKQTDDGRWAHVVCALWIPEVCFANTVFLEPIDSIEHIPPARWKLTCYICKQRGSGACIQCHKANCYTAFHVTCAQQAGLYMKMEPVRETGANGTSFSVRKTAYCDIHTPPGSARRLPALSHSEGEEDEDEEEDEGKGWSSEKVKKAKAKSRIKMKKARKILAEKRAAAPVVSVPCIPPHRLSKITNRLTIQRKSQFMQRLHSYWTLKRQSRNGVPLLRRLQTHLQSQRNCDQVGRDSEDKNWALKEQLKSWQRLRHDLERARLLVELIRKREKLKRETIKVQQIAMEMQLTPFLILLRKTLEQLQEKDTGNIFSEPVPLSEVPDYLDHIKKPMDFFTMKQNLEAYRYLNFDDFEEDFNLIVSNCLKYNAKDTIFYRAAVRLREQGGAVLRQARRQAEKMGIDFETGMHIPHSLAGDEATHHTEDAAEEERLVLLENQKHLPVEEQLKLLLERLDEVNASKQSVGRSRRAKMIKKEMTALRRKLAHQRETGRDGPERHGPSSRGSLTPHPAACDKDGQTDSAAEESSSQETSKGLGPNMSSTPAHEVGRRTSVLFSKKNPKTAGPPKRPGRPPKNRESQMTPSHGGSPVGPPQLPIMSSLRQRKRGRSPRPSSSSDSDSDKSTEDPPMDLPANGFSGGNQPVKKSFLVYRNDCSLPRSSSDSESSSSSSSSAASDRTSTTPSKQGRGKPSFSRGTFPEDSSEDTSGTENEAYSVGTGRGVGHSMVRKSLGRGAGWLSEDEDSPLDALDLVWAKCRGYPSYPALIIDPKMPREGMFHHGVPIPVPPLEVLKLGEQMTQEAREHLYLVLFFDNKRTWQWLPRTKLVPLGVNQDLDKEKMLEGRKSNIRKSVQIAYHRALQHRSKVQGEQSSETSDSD
Note to self: use Y only for ΔTm readings below 5 °C; a reading exactly at 5 °C still gets N.

Here are 5 molecules together with their reported answers.
INSERT INTO results (structure_smiles, target_system, assigned_category) VALUES
  ('COc1cc2c(cc1NS(=O)(=O)c1ccccc1)cc(C)c(=O)n2C', 'UniProt:P55201', 'N'),
  ('Cn1c(=O)ccc2cc(NS(=O)(=O)C3CCCCC3)ccc21', 'UniProt:P55201', 'Y'),
  ('Cn1c(=O)ccc2cc(NS(=O)(=O)c3ccc(C#N)cc3)ccc21', 'UniProt:P55201', 'N'),
  ('Cn1c(=O)ccc2cc(NS(=O)(=O)c3ccccc3)ccc21', 'UniProt:P55201', 'N'),
  ('Cn1c(=O)ccc2cc(NS(=O)(=O)C3CC3)ccc21', 'UniProt:P55201', 'Y');

Task: Is ΔTm of CCc1cc2cc(NS(=O)(=O)c3ccc(C#N)cc3)ccc2n(C)c1=O strictly below 5 °C?
Result: N

Task: Would you mind doing Cc1cc(=O)n(C)c2ccc(NS(=O)(=O)c3ccc(C#N)cc3)cc12 as well?
Result: Y

Task: Would you mind doing COc1cc2c(cc1NS(=O)(=O)c1ccc(C#N)cc1OC)cc(C)c(=O)n2C as well?
Result: N

Task: Would you mind doing COc1cc2c(cc1NS(=O)(=O)c1ccc(C#N)cc1)cc(C)c(=O)n2C as well?
Result: N
